Where these numbers come from: patent US10059667B2

# Measurement Target: Human GPR40 (Homo sapiens (Human))
# Sequence (O14842 whole entry): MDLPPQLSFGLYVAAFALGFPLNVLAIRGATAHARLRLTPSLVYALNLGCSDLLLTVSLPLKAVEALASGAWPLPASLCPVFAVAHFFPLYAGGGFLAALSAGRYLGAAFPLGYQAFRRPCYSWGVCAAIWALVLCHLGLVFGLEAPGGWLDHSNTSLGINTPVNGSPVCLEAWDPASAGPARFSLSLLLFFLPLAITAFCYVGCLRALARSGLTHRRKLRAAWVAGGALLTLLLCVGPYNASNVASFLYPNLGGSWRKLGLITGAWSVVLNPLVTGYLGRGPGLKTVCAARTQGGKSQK
# Method Description: Inositol Phosphate Turnover (IP1) Assay 2, HEK cells stably expressing human GPR40, CisBio IP-One kit
# Type: cell-based
# Study Conditions: HEK cells stably expressing human GPR40, 384-well
Value Kind: EC50 (nM)

# EC50 lookup, item COc1cc(C2CC(COc3cccc([C@H](C4CC4)[C@H](C)C(=O)O)c3)C2)c(F)cn1 (single isomer, unassigned) [Example 91]
7.4

[a] COc1cc(C2CC(COc3cccc([C@H](C4CC4)[C@H](C)C(=O)O)c3)C2)c(F)cn1 (stereo partly drawn) [Example 87]
[b] COc1cc(C2CC(COc3cccc([C@H](C4CC4)[C@H](C)C(=O)O)c3)C2)c(F)cn1 (single isomer, unassigned) [Example 90]
# compare EC50 for a vs b ; return the one with the smaller value Kindly state the label of the option you pick.
a
